These entries and their values trace back to the supplement of paper PMC6555819.

System: FXR:RXRa (NR concentration 270 nM, RXRa partner concentration 90 nM)
test.description: PBM binding z-score (relative to random genomic background probes); higher = stronger binding; sequences stand for … in GC…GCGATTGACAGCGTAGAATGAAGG
// reported PBM binding z-score per item
measured.endpoint: PBM binding z-score

residues	target.entity	experimental.value
GCTAGTTGGTCAGTAAAAGGTCACCCACCGGTCG	FXR:RXRa (NR concentration 270 nM, RXRa partner concentration 90 nM)	3.38
TCGCCTAGGTCATGCGGGCCAGTATAGTGTCGGC	FXR:RXRa (NR concentration 270 nM, RXRa partner concentration 90 nM)	4.09
CCTAGTTGGTCAGTAGGTCACACACCGGATATGA	FXR:RXRa (NR concentration 270 nM, RXRa partner concentration 90 nM)	1.75
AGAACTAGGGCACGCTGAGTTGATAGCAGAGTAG	FXR:RXRa (NR concentration 270 nM, RXRa partner concentration 90 nM)	-0.159
GCGACTGGGGCAAAGCAGGCTACCATAAGGTTGG	FXR:RXRa (NR concentration 270 nM, RXRa partner concentration 90 nM)	-0.319
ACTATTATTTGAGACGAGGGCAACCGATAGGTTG	FXR:RXRa (NR concentration 270 nM, RXRa partner concentration 90 nM)	0.64
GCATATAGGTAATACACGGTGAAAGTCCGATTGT	FXR:RXRa (NR concentration 270 nM, RXRa partner concentration 90 nM)	0.145
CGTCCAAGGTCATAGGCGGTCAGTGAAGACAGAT	FXR:RXRa (NR concentration 270 nM, RXRa partner concentration 90 nM)	7.45
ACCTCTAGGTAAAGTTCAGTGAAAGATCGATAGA	FXR:RXRa (NR concentration 270 nM, RXRa partner concentration 90 nM)	0.698
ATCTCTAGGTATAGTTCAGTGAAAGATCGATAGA	FXR:RXRa (NR concentration 270 nM, RXRa partner concentration 90 nM)	0.622
ACTAGTTGGTCAGCTGCGGTCACACACAATTCGG	FXR:RXRa (NR concentration 270 nM, RXRa partner concentration 90 nM)	0.216
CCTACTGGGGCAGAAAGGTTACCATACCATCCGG	FXR:RXRa (NR concentration 270 nM, RXRa partner concentration 90 nM)	0.253
TAGCCTAGGTCATTGGGACAGTATAGTACGCATC	FXR:RXRa (NR concentration 270 nM, RXRa partner concentration 90 nM)	4.69
TCTTGTAGATCAAGCAGGTTGAGAAAGCCTGAGT	FXR:RXRa (NR concentration 270 nM, RXRa partner concentration 90 nM)	0.128
CCGAGTAGGTTATGGGGCAATCAGGCAACGGTGA	FXR:RXRa (NR concentration 270 nM, RXRa partner concentration 90 nM)	0.219
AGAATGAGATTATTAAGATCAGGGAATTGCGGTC	FXR:RXRa (NR concentration 270 nM, RXRa partner concentration 90 nM)	-1.55
AATACAGGGTCACTAGGCCAGAGCAGGTACGAAT	FXR:RXRa (NR concentration 270 nM, RXRa partner concentration 90 nM)	5.98
ATCCCTAGGTAACCAAGTTCAGTGAATGCCGAAC	FXR:RXRa (NR concentration 270 nM, RXRa partner concentration 90 nM)	0.476
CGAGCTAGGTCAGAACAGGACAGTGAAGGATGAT	FXR:RXRa (NR concentration 270 nM, RXRa partner concentration 90 nM)	1.62
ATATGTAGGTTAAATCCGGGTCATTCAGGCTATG	FXR:RXRa (NR concentration 270 nM, RXRa partner concentration 90 nM)	2.83
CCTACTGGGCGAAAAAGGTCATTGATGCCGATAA	FXR:RXRa (NR concentration 270 nM, RXRa partner concentration 90 nM)	3.16
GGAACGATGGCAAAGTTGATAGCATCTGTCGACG	FXR:RXRa (NR concentration 270 nM, RXRa partner concentration 90 nM)	-0.553
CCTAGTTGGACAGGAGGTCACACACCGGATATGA	FXR:RXRa (NR concentration 270 nM, RXRa partner concentration 90 nM)	3.17
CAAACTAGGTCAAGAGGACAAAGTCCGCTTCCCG	FXR:RXRa (NR concentration 270 nM, RXRa partner concentration 90 nM)	3.92
ATAGGTAGGTTAAGGGTCATTCAGGTTGGTTCGC	FXR:RXRa (NR concentration 270 nM, RXRa partner concentration 90 nM)	5.35
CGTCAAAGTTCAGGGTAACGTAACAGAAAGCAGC	FXR:RXRa (NR concentration 270 nM, RXRa partner concentration 90 nM)	4.15
ATATGTAGGTTATCGGGTCATTCTGTTTGCGCAT	FXR:RXRa (NR concentration 270 nM, RXRa partner concentration 90 nM)	3.44
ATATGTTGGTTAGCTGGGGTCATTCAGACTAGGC	FXR:RXRa (NR concentration 270 nM, RXRa partner concentration 90 nM)	3.89
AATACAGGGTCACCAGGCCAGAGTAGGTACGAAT	FXR:RXRa (NR concentration 270 nM, RXRa partner concentration 90 nM)	7.09
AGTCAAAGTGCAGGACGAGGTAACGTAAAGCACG	FXR:RXRa (NR concentration 270 nM, RXRa partner concentration 90 nM)	-0.105
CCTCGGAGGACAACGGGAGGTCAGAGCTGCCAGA	FXR:RXRa (NR concentration 270 nM, RXRa partner concentration 90 nM)	1.17
ACTATTAGTTGAGACGAGGGCCACCGATAGGTTG	FXR:RXRa (NR concentration 270 nM, RXRa partner concentration 90 nM)	-0.105
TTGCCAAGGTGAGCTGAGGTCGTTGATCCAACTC	FXR:RXRa (NR concentration 270 nM, RXRa partner concentration 90 nM)	1.5
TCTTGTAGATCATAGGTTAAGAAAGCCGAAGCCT	FXR:RXRa (NR concentration 270 nM, RXRa partner concentration 90 nM)	1.15
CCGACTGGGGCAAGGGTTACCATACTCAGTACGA	FXR:RXRa (NR concentration 270 nM, RXRa partner concentration 90 nM)	0.0555
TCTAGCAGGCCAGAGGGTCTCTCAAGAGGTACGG	FXR:RXRa (NR concentration 270 nM, RXRa partner concentration 90 nM)	-1.4
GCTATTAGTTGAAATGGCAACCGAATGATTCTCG	FXR:RXRa (NR concentration 270 nM, RXRa partner concentration 90 nM)	-0.365
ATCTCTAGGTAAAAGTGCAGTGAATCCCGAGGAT	FXR:RXRa (NR concentration 270 nM, RXRa partner concentration 90 nM)	0.179
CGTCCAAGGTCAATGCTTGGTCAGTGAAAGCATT	FXR:RXRa (NR concentration 270 nM, RXRa partner concentration 90 nM)	6.4
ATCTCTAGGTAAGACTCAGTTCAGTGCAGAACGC	FXR:RXRa (NR concentration 270 nM, RXRa partner concentration 90 nM)	0.385
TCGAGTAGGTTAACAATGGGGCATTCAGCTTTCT	FXR:RXRa (NR concentration 270 nM, RXRa partner concentration 90 nM)	0.324
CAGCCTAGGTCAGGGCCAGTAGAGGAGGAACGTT	FXR:RXRa (NR concentration 270 nM, RXRa partner concentration 90 nM)	1.51
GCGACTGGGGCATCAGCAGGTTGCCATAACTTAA	FXR:RXRa (NR concentration 270 nM, RXRa partner concentration 90 nM)	-0.664
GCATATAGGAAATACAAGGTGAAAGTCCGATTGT	FXR:RXRa (NR concentration 270 nM, RXRa partner concentration 90 nM)	-0.0334
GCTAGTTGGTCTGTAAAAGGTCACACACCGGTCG	FXR:RXRa (NR concentration 270 nM, RXRa partner concentration 90 nM)	3.27
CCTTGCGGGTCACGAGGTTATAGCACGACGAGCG	FXR:RXRa (NR concentration 270 nM, RXRa partner concentration 90 nM)	6.38
CCTTCTGGGCCAAAGGTCATTGATTCCAATGCTC	FXR:RXRa (NR concentration 270 nM, RXRa partner concentration 90 nM)	4.88
CAGCTTAGGTCAGGGCCAGTATAGGAGGAACGTT	FXR:RXRa (NR concentration 270 nM, RXRa partner concentration 90 nM)	2.21
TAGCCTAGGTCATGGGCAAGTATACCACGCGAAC	FXR:RXRa (NR concentration 270 nM, RXRa partner concentration 90 nM)	4.43
CCTCGGAGGATAGAAGGTCAGAGCTGTCCGCTTT	FXR:RXRa (NR concentration 270 nM, RXRa partner concentration 90 nM)	1
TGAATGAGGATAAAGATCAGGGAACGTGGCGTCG	FXR:RXRa (NR concentration 270 nM, RXRa partner concentration 90 nM)	0.0362
